Biological target: T1, Ac-[residues removed]-NH2 (NPNA2 peptide) (Plasmodium falciparum (synthetic CSP …))
T1 construct: also called 8-mer peptide; source: synthetic peptide; bought: Innopep Inc
Assay: ITC; peptide in the syringe, Fab (~10 uM) in the cell; DPBS, 25 °C; single-site binding model; triplicate, mean ± SD; No. of sites = peptide per Fab
Conditions: both partners purified
readoutLabel: stoichiometry N
Answers are plain numbers.

Some solved entries appear below for comparison.
{"binder": "Fab224 (Fab, V domains shown, also called mAb224; source: ExpiCHO cells, purified (HiTrap Protein G, SEC)) VH: EVQLVESGGGLVQPGRSLRLPCTASGFSFGDHAMSWVRQAPGKGLEWVGFIRKTTYGATTHYAAAVRGRFTISRDDSKSIVYLQMNSLKTEDTAVYFCTRVQLDYGPGYQYYGMDVWGQGTTVTVSS VL: ESVLTQPPSVSGAPGQRVTISCTGMNSNIGAGYDVYWYQQLPGRAPKLLIYGNSNRPSGVPDRFSGSRSGTSASLAITGLQAEDEADYYCQSYDTSLNGWAFGGGTKLTVL", "stoichiometry N": 1.59}
{"binder": "Fab317 (Fab, V domains shown, also called mAb317; source: ExpiCHO cells, purified (HiTrap Protein G, SEC)) VH: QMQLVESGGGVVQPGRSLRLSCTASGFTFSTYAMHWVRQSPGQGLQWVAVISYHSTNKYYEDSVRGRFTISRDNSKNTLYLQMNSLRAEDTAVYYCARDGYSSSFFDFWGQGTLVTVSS VL: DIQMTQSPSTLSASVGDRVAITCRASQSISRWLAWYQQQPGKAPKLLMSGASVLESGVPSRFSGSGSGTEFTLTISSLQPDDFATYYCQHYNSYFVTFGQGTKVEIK", "stoichiometry N": 1.36}
{"binder": "Fab356 (Fab, V domains shown, also called mAb356; source: ExpiCHO cells, purified (HiTrap Protein G, SEC)) VH: VQLVESGGGVVQPGRSLRLSCAASGFTFRNFGMHWVRQTPGKGLEWVAVIWHDGSNKFYADSVEGRFTISRDNSKNMIYLQMNSLRVEDTAIYYCARDSLFYDHDNSGYYGYWGQGTLVTVSS VL: QIVMTQSPATVSVSPGERATLSCRASRSVTSKLAWYQQKPGQAPRLLIYGASTRATGIPARFSGSGSGTEFTLTISSLQSEDFAVYFCQQYNNGFTFGPGTKVDFK", "stoichiometry N": 1.29}
{"binder": "Fab364 (Fab, V domains shown, also called mAb364; source: ExpiCHO cells, purified (HiTrap Protein G, SEC)) VH: QVQLVESGGGVVQPGGSLRLSCAASGFTFSGYGMHWVRQVPGKGLEWVAIIWFDGSQKYYADSVQGRFTISRDNSKKTLFLRMNSLRAEDTAVYYCAKVHDDEPTQDYWGQGTLVTVSS VL: DIQMTQSPSTLSASVGDRVTITCRASQGISTSLAWYQQKPGKAPKLLIYKASSLESGVPSRFSGSGSGTEFTLTITSLQPEDFATYYCQQYKRYWTFGQGTKVEIK", "stoichiometry N": 1.41}

API: the following record is the query input.
Tell me the measured stoichiometry N of Fab399 (Fab, V domains shown, also called mAb399; source: ExpiCHO cells, purified (HiTrap Protein G, SEC)) VH: EVQLVESGGGLVQPGRSLRLSCTTSGFTFGDYAMSWFRQAPGKGLEWVGFIRSKGFGGTAEYAAFVKGRFTISRDDSRSIAYLQMTSLKPEDTAVYYCSRVGVVIATAVYWGQGTLVTVSS VL: DILMTQTPLSLSVTPGQPASISCKSSQSLLDNDGKTYLYWYLQKPGQSPQLLIYEVSNRFSGVPERFSGSGSGTDFTLKIRRVEAEDVGVYYCMQRIDLPWTFGQGTKVEIK , please.
3.23
